# assay-text: Log P by RP-HPLC (HPLC-PDA), extrapolation of Log k to 0% MeOH
# Assay type: physicochemical
# condition-details: 65% MeOH, RP-C18
Can you tell me Log k for the items I'm about to list?
Give bare numbers.

{"columns": ["compound", "recorded-result"],
 "data": [
  ["Oc1ccc(/C=C/c2ccc(Cl)cc2)cc1 [Compound 1, 4-[(E)-2-(4-Chlorophenyl)vinyl]phenol]", 0.6845],
  ["Oc1ccc(/C=C/c2ccc(C(F)(F)F)cc2)cc1Cl [Compound 6]", 1.0820],
  ["Oc1ccc(/C=C/c2ccccc2)cc1Cl [Compound 2, 2-Chloro-4-[(E)-2-phenylvinyl]phenol]", 0.7826],
  ["Oc1ccc(/C=C/c2ccc(Cl)cc2Cl)cc1Cl [Compound 4]", 1.4456],
  ["O=[N+]([O-])c1ccc(/C=C/c2ccc(O)c(Cl)c2)cc1 [Compound 5]", 0.7161]
]}

# input for lookup
Incoming: Using the record for Oc1ccc(/C=C/c2ccc(C(F)(F)F)cc2)cc1 [Compound 7] , report its Log k.
Outgoing: 0.8368
